Measured IC50 of individual entries
system: HCT-116; assay: Cytotoxicity against human HCT116 cells after 96 hrs by microplate reader analysis; format: functional, cell-based; conditions: HCT-116, 96 h
Number in nM, nothing else.

COc1c(Cl)c2c(c(OC)c1OC)-c1ccc(OC)c(=O)cc1[C@@H](NC(=O)c1cccc(C#N)c1)CC2 4.1
COc1c(Cl)c2c(c(OC)c1OC)-c1ccc(OC)c(=O)cc1[C@@H](NC(=O)CCC(=O)O)CC2 6580
COc1c(Cl)c2c(c(OC)c1OC)-c1ccc(OC)c(=O)cc1[C@@H](NC(=O)CO)CC2 8.2

What does the data say about its IC50? Entry: `COc1c(Cl)c2c(c(OC)c1OC)-c1ccc(OC)c(=O)cc1[C@@H](NC(=O)c1ccccc1F)CC2`
1.6

What does the data say about its IC50? Entry: `COc1c(Cl)c2c(c(OC)c1OC)-c1ccc(OC)c(=O)cc1[C@@H](NC(=O)CC(C)C)CC2`
23.7

What does the data say about its IC50? Entry: `COc1ccc(C(=O)N[C@H]2CCc3c(Cl)c(OC)c(OC)c(OC)c3-c3ccc(OC)c(=O)cc32)c(OC)c1`
57.3

What does the data say about its IC50? Entry: `COc1c(Cl)c2c(c(OC)c1OC)-c1ccc(OC)c(=O)cc1[C@@H](NC(=O)C(C)(C)O)CC2`
8.1

What does the data say about its IC50? Entry: `COc1c(Cl)c2c(c(OC)c1OC)-c1ccc(OC)c(=O)cc1[C@@H](NC(=O)[C@@H](C)O)CC2`
7.7

###

system: HT-29; experiment: Cytotoxicity against human HT-29 cells after 96 hrs by microplate reader analysis; format: functional, cell-based; conditions: HT-29, 96 h
pIC50: −log10 of the molar value.
Would you please tag the item satisfied when its pIC50 is 8 or above, and not satisfied when it is below?

Below, 6 molecules whose answers are already recorded.
COc1c(Cl)c2c(c(OC)c1OC)-c1ccc(OC)c(=O)cc1[C@@H](NC(=O)CCO)CC2 not satisfied
COc1c(Cl)c2c(c(OC)c1OC)-c1ccc(OC)c(=O)cc1[C@@H](NC(=O)c1cccc(F)c1)CC2 satisfied
COc1c(Cl)c2c(c(OC)c1OC)-c1ccc(OC)c(=O)cc1[C@@H](NC(=O)c1ccccc1)CC2 satisfied
COc1cc(C(=O)N[C@H]2CCc3c(Cl)c(OC)c(OC)c(OC)c3-c3ccc(OC)c(=O)cc32)cc(OC)c1OC not satisfied
COc1c(Cl)c2c(c(OC)c1OC)-c1ccc(OC)c(=O)cc1[C@@H](NC(=O)C(F)(F)F)CC2 satisfied
COc1c(Cl)c2c(c(OC)c1OC)-c1ccc(OC)c(=O)cc1[C@@H](NC(=O)CCN(C)C)CC2 not satisfied

Please tell me: is the molecule `CCCCCCC(=O)N[C@H]1CCc2c(Cl)c(OC)c(OC)c(OC)c2-c2ccc(OC)c(=O)cc21` at or over 8 in terms of pIC50?
not satisfied

Please tell me: is the molecule `COc1c(Cl)c2c(c(OC)c1OC)-c1ccc(OC)c(=O)cc1[C@@H](NC(=O)c1cc([N+](=O)[O-])cc([N+](=O)[O-])c1)CC2` at or over 8 in terms of pIC50?
satisfied

Please tell me: is the molecule `COc1c(Cl)c2c(c(OC)c1OC)-c1ccc(OC)c(=O)cc1[C@@H](NC(=O)c1ccccc1C#N)CC2` at or over 8 in terms of pIC50?
not satisfied

Please tell me: is the molecule `COc1cccc(C(=O)N[C@H]2CCc3c(Cl)c(OC)c(OC)c(OC)c3-c3ccc(OC)c(=O)cc32)c1` at or over 8 in terms of pIC50?
satisfied

Please tell me: is the molecule `COc1c(Cl)c2c(c(OC)c1OC)-c1ccc(OC)c(=O)cc1[C@@H](NC(=O)CCC(=O)O)CC2` at or over 8 in terms of pIC50?
not satisfied

Please tell me: is the molecule `COc1c(Cl)c2c(c(OC)c1OC)-c1ccc(OC)c(=O)cc1[C@@H](NC(=O)c1cccc(C#N)c1)CC2` at or over 8 in terms of pIC50?
satisfied

Please tell me: is the molecule `COc1c(Cl)c2c(c(OC)c1OC)-c1ccc(OC)c(=O)cc1[C@@H](NC(=O)CCCC(=O)O)CC2` at or over 8 in terms of pIC50?
not satisfied

Please tell me: is the molecule `COc1c(Cl)c2c(c(OC)c1OC)-c1ccc(OC)c(=O)cc1[C@@H](NC(=O)c1ccc(F)cc1)CC2` at or over 8 in terms of pIC50?
satisfied

###

Measured pIC50 of individual entries
tested on: A549; assay: Cytotoxicity against human A549 cells after 96 hrs by microplate reader analysis; type: functional, cell-based; details: A549, 96 h
Recall that pIC50 is obtained by taking minus log10 of the concentration measured in molar.

Example entries and their recorded answers appear below.
COc1c(Cl)c2c(c(OC)c1OC)-c1ccc(OC)c(=O)cc1[C@@H](NC(=O)c1ccc(F)cc1)CC2 8.17
COc1c(Cl)c2c(c(OC)c1OC)-c1ccc(OC)c(=O)cc1[C@@H](NC(=O)C(C)(C)O)CC2 7.71

What does the data say about its pIC50? Entry: `COc1c(Cl)c2c(c(OC)c1OC)-c1ccc(OC)c(=O)cc1[C@@H](NC(=O)c1cccc(F)c1)CC2`
8.46

What does the data say about its pIC50? Entry: `COc1c(Cl)c2c(c(OC)c1OC)-c1ccc(OC)c(=O)cc1[C@@H](NC(=O)CCCC(=O)O)CC2`
5.27

###

system: HCT-116; assay: Cytotoxicity against human HCT116 cells after 96 hrs by microplate reader analysis; type: functional, cell-based; conditions: HCT-116, 96 h
pIC50: −log10 of the molar value.
Would you please tag the item label 1 when its pIC50 is 8 or above, and label 0 when it is below?

Below, 6 compounds whose answers are already recorded.
COc1c(Cl)c2c(c(OC)c1OC)-c1ccc(OC)c(=O)cc1[C@@H](N)CC2 label 0
COc1cccc(C(=O)N[C@H]2CCc3c(Cl)c(OC)c(OC)c(OC)c3-c3ccc(OC)c(=O)cc32)c1 label 1
COc1c(Cl)c2c(c(OC)c1OC)-c1ccc(OC)c(=O)cc1[C@@H](NC(=O)c1ccccc1[N+](=O)[O-])CC2 label 0
COc1c(Cl)c2c(c(OC)c1OC)-c1ccc(OC)c(=O)cc1[C@@H](NC(=O)CCCO)CC2 label 0
COc1ccccc1C(=O)N[C@H]1CCc2c(Cl)c(OC)c(OC)c(OC)c2-c2ccc(OC)c(=O)cc21 label 0
COc1c(Cl)c2c(c(OC)c1OC)-c1ccc(OC)c(=O)cc1[C@@H](NC(=O)c1cccc(N(C)C)c1)CC2 label 1

Please tell me: is the compound `COc1c(Cl)c2c(c(OC)c1OC)-c1ccc(OC)c(=O)cc1[C@@H](NC(=O)c1ccccc1)CC2` at or over 8 in terms of pIC50?
label 1

Please tell me: is the compound `COc1c(Cl)c2c(c(OC)c1OC)-c1ccc(OC)c(=O)cc1[C@@H](NC(=O)CCCC(=O)O)CC2` at or over 8 in terms of pIC50?
label 0

Please tell me: is the compound `COc1c(Cl)c2c(c(OC)c1OC)-c1ccc(OC)c(=O)cc1[C@@H](NC(=O)CCO)CC2` at or over 8 in terms of pIC50?
label 0

Please tell me: is the compound `COc1c(Cl)c2c(c(OC)c1OC)-c1ccc(OC)c(=O)cc1[C@@H](NC(=O)CN(C)C)CC2` at or over 8 in terms of pIC50?
label 0

Please tell me: is the compound `COc1c(Cl)c2c(c(OC)c1OC)-c1ccc(OC)c(=O)cc1[C@@H](NC(=O)c1cccc([N+](=O)[O-])c1)CC2` at or over 8 in terms of pIC50?
label 1

###

Measured IC50 of individual entries
tested on: A549; experiment: Cytotoxicity against human A549 cells after 96 hrs by microplate reader analysis; type: functional, cell-based; conditions: A549, 96 h
Number in nM, nothing else.

COc1c(Cl)c2c(c(OC)c1OC)-c1ccc(OC)c(=O)cc1[C@@H](NC(=O)c1cccc(N(C)C)c1)CC2 6.4
COc1c(Cl)c2c(c(OC)c1OC)-c1ccc(OC)c(=O)cc1[C@@H](NC(=O)c1ccc(N(C)C)cc1)CC2 169
COc1ccccc1C(=O)N[C@H]1CCc2c(Cl)c(OC)c(OC)c(OC)c2-c2ccc(OC)c(=O)cc21 13.2

Would you kindly look at the next entry?
What does the data say about its IC50? Entry: `COc1c(Cl)c2c(c(OC)c1OC)-c1ccc(OC)c(=O)cc1[C@@H](NC(=O)C(F)(F)F)CC2`
1.8

###

system: HCT-116; assay: Cytotoxicity against human HCT116 cells after 96 hrs by microplate reader analysis; assay type: functional, cell-based; settings: HCT-116, 96 h
measured-attribute: pIC50
Recall that pIC50 is obtained by taking minus log10 of the concentration measured in molar.

Example entries and their recorded answers appear below.
COc1c(Cl)c2c(c(OC)c1OC)-c1ccc(OC)c(=O)cc1[C@@H](NC(=O)CS)CC2 6.72
COc1c(Cl)c2c(c(OC)c1OC)-c1ccc(OC)c(=O)cc1[C@@H](NC(=O)c1cccc(F)c1)CC2 8.80
COc1c(Cl)c2c(c(OC)c1OC)-c1ccc(OC)c(=O)cc1[C@@H](NC(=O)c1cc(F)c(F)c(F)c1)CC2 8.14
COc1c(Cl)c2c(c(OC)c1OC)-c1ccc(OC)c(=O)cc1[C@@H](NC(=O)c1ccccc1C#N)CC2 6.98
CCC(=O)N[C@H]1CCc2c(Cl)c(OC)c(OC)c(OC)c2-c2ccc(OC)c(=O)cc21 8.12

What does the data say about its pIC50? Entry: `COc1cc(C(=O)N[C@H]2CCc3c(Cl)c(OC)c(OC)c(OC)c3-c3ccc(OC)c(=O)cc32)cc(OC)c1OC`
7.29

What does the data say about its pIC50? Entry: `COc1ccc(C(=O)N[C@H]2CCc3c(Cl)c(OC)c(OC)c(OC)c3-c3ccc(OC)c(=O)cc32)cc1`
8.10

What does the data say about its pIC50? Entry: `COc1c(Cl)c2c(c(OC)c1OC)-c1ccc(OC)c(=O)cc1[C@@H](NC(=O)c1ccccc1N(C)C)CC2`
6.77

What does the data say about its pIC50? Entry: `COc1c(Cl)c2c(c(OC)c1OC)-c1ccc(OC)c(=O)cc1[C@@H](NC(=O)CCN(C)C)CC2`
6.27

What does the data say about its pIC50? Entry: `COc1c(Cl)c2c(c(OC)c1OC)-c1ccc(OC)c(=O)cc1[C@@H](NC(=O)c1ccc(F)cc1)CC2`
8.26

Entry source: ChEMBL document CHEMBL3217664
